The origin of these recorded values is ChEMBL document CHEMBL1833947.

Field: Ki. Provide a value for each of the compounds that follow.
target: D(2) dopamine receptor (Rattus norvegicus); test: Displacement of [3H]spiperone from dopamine D2 receptor in rat striatum tissue after 20 mins by scintillation counting
Sequence (P61169 whole entry): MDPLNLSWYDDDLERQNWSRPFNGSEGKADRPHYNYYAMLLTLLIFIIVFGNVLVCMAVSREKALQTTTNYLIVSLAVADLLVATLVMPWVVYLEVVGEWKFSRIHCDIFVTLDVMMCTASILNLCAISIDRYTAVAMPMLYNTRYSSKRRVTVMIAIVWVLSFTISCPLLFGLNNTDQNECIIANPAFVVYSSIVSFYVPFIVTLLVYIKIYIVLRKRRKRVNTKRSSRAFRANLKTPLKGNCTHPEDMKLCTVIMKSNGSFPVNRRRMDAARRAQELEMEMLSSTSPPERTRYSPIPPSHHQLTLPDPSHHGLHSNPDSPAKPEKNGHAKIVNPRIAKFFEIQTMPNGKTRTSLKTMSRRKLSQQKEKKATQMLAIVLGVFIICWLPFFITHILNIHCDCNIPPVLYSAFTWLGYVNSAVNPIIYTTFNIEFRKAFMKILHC
Respond numerically; units are nM and should not be typed.

Recorded Ki of O=C(N[C@@H]1CC2CC[C@H](C1)N2CC1CCCO1)c1ccc2ccccc2c1 (single isomer, unassigned) , please.
1200

Recorded Ki of COc1cc(N)c(Cl)cc1C(=O)N[C@H]1CC2CC[C@H](C1)N2Cc1ccco1 (single isomer, unassigned) , please.
18.2

Recorded Ki of COc1cccc(C(=O)N[C@@H]2CC3CC[C@H](C2)N3Cc2ccco2)c1OC (single isomer, unassigned; 4b) , please.
26.3

Recorded Ki of COc1ccc(Cl)cc1C(=O)N[C@@H]1CC2CC[C@H](C1)N2CC1CCCO1 (single isomer, unassigned) , please.
2400
